Origin of measurements: patent US20140221475A1

tested on: human bladder cancer cell (T24); assay: Cell proliferation inhibition, MTS method, human bladder cancer cell T24; format: cell-based; settings: T24, 10 μg/ml
Below, each of the molecules is paired with its reported Inhibition rate of cell proliferation after 3 days from medicine addition value.
parameter: Inhibition rate of cell proliferation after 3 days from medicine addition

- molecule: "O=C1[O][Pt]2([NH][C@@H]3CCCC[C@H]3[NH]2)[O]C1=O [Oxaliplatin, oxaliplatin, reference compound]"
  measurement-target: "human bladder cancer cell (T24)"
  observed-measurement: "43%"
- molecule: "NC1CCCC12CCCC2N.[Cl][Pt]([Cl])([Cl])[Cl] (stereo not shown) [Compound 5]"
  measurement-target: "human bladder cancer cell (T24)"
  observed-measurement: "86%"
- molecule: "NC1CCCC12CCCC2N.O=C1CC(=O)[O][Pt]([Cl])([Cl])[O]1 (stereo not shown)"
  measurement-target: "human bladder cancer cell (T24)"
  observed-measurement: "77%"
- molecule: "NC1CCCC12CCCC2N.[Cl][Pt]([Cl])([Cl])[Cl] (stereo not shown) [Compound 6]"
  measurement-target: "human bladder cancer cell (T24)"
  observed-measurement: "81%"
